- Target: NDM-1 (Klebsiella pneumoniae)
- Sequence (C7C422 whole entry, looked up, species assumed): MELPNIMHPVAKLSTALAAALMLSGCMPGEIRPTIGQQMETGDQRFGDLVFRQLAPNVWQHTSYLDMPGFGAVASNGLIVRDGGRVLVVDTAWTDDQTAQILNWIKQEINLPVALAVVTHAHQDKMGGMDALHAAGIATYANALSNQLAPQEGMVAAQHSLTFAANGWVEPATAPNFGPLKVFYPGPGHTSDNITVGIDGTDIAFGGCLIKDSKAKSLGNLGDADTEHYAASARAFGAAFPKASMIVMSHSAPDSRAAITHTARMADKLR
- Procedure Details: biochemical
- Format: biochemical
- Experimental Conditions: fluorescence assay with CCF2-FA substrate; read-out: NDM-1 IC50
Test Readout: pIC50
One number for each entry, as −log10 of the molar value.

Look over these answered cases.
Mol: NS(=O)(=O)c1cccc(-c2cnc(N3CCCCC3)nc2)c1-c1nnn[nH]1
pIC50: 8.51

Mol: NS(=O)(=O)c1c(C(F)(F)F)ccc(N2C[C@@H](O)[C@@H](O)C2)c1-c1nnn[nH]1
pIC50: 7.08

Mol: NS(=O)(=O)c1nccc(-c2ccc3ncccc3c2)c1-c1nn[nH]n1
pIC50: 7.52

Mol: CC(C)n1nccc1-c1cccc(S(N)(=O)=O)c1-c1nn[nH]n1
pIC50: 8.02

Mol: NS(=O)(=O)c1c(C(F)(F)F)ccc(N2CCC3(CCNCC3)CC2)c1-c1nnn[nH]1
pIC50: 8.31

Mol: NS(=O)(=O)c1c(C(F)(F)F)ccc(N2CCC(N3CCNCC3)CC2)c1-c1nnn[nH]1
pIC50: 7.75

Mol: NS(=O)(=O)c1c(C(F)(F)F)ccc(C2CCC3(CCNCC3)CC2)c1-c1nnn[nH]1
pIC50: 9.13

Mol: C[C@@H]1NC(=O)O[C@H]1c1ccc(-c2cccc(S(N)(=O)=O)c2-c2nnn[nH]2)cc1
pIC50: 8.83

Hey, quick one: what's pIC50 for each of these?
1. CCN(CC)C(=O)c1ccc(-c2cccc(S(N)(=O)=O)c2-c2nn[nH]n2)cc1
2. NS(=O)(=O)c1cccc(CC2CCCCC2)c1-c1nnn[nH]1
3. CN(c1ccnc(S(N)(=O)=O)c1-c1nnn[nH]1)C1CCCCC1
4. NS(=O)(=O)c1cccc(-c2ccc(C(=O)NC3CC3)cc2)c1-c1nn[nH]n1
5. NS(=O)(=O)c1nccc(-c2ccc(C(=O)O)cc2)c1-c1nnn[nH]1

Response given:
1. 8.83
2. 8.08
3. 6.05
4. 8.19
5. 7.94

Values compiled from patent US9708336B2.
